The reported numbers originate from PubChem BioAssay.

Test: inhibitors of hydroxyurea-induced Chk1 phosphorylation, primary screen, imaging, HeLa, phospho-Chk1 antibody, percent positive cells (AID 1186)
Conditions: hydroxyurea-induced phospho-Chk1 immunofluorescence imaging, higher = more signal
MEASURE: z-score
Respond using a number only.

Example molecules with recorded z-score:
MOLECULE	ENDPOINT RESULT
[N-]=[N+]=NCc1ccccc1C[C@]1(C(=O)NCc2ccccc2)N=C(c2ccc(OCCCO)cc2)O[C@H]1c1ccccc1	-0.901
C[N+](C)(C)CCCC[C@@H]1NC(=O)[C@@H]2C[C@H](C(=O)NCCCCCNC(=O)CS)[C@H](c3ccc(O)cc3)N2C1=O	-0.536
COc1ccc(C#Cc2ccc3c(c2)[C@]2(C(=O)N3)[C@H](c3ccc(O)cc3)N3[C@H](c4ccccc4)[C@H](c4ccccc4)OC(=O)[C@H]3[C@@H]2C(=O)N2CCN(c3ncccn3)CC2)cc1	0.396
CCCCC(=C=CC[C@@H](O)c1ccc(OCCO)cc1)C[C@@H](O)c1cc(Cl)cc(Cl)c1O	-0.806
COCCCNC(=O)[C@@]1(Cc2ccccc2)N=C(c2ccc(OCCCO)cc2)O[C@H]1c1ccccc1N=[N+]=[N-]	-0.362

Exercise: Reported z-score, molecule CO[C@H]1O[C@H](CO)[C@@H](OC(=O)Nc2ccccc2)[C@H](OC(=O)Nc2ccccc2-c2ccccc2)[C@H]1OC(=O)Nc1ccccc1-c1ccccc1 : ____
Solution: -0.796

Exercise: Reported z-score, molecule [N-]=[N+]=NCc1ccccc1C[C@@]1(C(=O)O)N=C(c2ccc(OCCCO)cc2)O[C@@H]1c1ccccc1 : ____
Solution: 0.0912

Exercise: Reported z-score, molecule Cc1ccc(S[C@]2(C(=O)NCCN3CCOCC3)CC(=O)N(Cc3cc(C(F)(F)F)cc(C(F)(F)F)c3)[C@@H]2c2ccc(CO)cc2)cc1 : ____
Solution: -0.999

Exercise: Reported z-score, molecule Cc1ccc(N2C(=O)c3ccccc3[C@](C)(C(=O)NCC(F)(F)F)[C@@H]2c2ccc(CO)cc2)nc1 : ____
Solution: -0.326
